subject of test: T1, Recombinant human CD4 (R&D Systems, Cat. 10327-CD) (human, UniProt P01730 26-390, limits assumed)
T1 construct: Bought protein; also called huCD4
assay comment: BLI (Octet Red 384), non-clonal supernatant captured on AMC sensors, 100 nM human CD4, 1:1 local fit;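 also: hybridoma antibodies from supernatants, one CD4 concentration giving single-point kinetics per supernatant, with curves fitted over both association and dissociation phases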
kon values, listed per item
Numbers only; they are read as M⁻¹ s⁻¹.

>  <binder>
75110_01K10A (antibody, V domains shown, Tested as non-clonal AlivaMab Mouse hybridoma supernatant (human variable regions and human kappa, mouse Fc); also called ADS75110 non-clonal supernatant 01K10A) VH: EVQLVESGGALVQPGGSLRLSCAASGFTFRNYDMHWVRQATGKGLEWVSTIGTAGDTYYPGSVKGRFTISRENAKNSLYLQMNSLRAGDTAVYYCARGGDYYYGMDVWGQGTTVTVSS VL: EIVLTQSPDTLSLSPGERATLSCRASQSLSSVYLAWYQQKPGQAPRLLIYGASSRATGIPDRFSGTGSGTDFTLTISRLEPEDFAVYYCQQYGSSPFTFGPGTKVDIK

>  <kon / M⁻¹ s⁻¹>
1200

$$$$
>  <binder>
75110_08H06A (antibody, V domains shown, Tested as non-clonal AlivaMab Mouse hybridoma supernatant (human variable regions and human kappa, mouse Fc); also called ADS75110 non-clonal supernatant 08H06A) VH: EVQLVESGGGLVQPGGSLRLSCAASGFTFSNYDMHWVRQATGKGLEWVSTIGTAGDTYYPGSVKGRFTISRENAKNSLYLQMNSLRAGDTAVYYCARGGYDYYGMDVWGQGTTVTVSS VL: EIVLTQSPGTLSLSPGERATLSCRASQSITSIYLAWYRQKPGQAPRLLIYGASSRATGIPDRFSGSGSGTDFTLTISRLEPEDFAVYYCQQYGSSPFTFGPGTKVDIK

>  <kon / M⁻¹ s⁻¹>
120000

$$$$

What value of kon has been recorded for this entry: 75110_10K21A (antibody, V domains shown, Tested as non-clonal AlivaMab Mouse hybridoma supernatant (human variable regions and human kappa, mouse Fc); also called ADS75110 non-clonal supernatant 10K21A) VH: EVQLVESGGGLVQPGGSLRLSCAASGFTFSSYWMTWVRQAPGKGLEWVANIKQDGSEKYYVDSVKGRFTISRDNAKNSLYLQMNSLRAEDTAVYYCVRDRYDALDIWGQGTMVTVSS VL: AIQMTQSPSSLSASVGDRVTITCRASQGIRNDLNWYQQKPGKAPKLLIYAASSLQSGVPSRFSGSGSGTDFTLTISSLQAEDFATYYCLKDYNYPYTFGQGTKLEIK
136000

What value of kon has been recorded for this entry: 75110_01G11A (antibody, V domains shown, Tested as non-clonal AlivaMab Mouse hybridoma supernatant (human variable regions and human kappa, mouse Fc); also called ADS75110 non-clonal supernatant 01G11A) VH: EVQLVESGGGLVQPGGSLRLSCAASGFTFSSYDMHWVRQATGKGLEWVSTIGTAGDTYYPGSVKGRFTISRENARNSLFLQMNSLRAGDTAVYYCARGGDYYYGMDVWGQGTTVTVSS VL: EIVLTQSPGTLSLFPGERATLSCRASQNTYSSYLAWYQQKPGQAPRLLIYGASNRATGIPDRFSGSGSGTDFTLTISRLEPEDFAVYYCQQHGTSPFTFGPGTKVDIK
47000

What value of kon has been recorded for this entry: 75110_05K11A (antibody, V domains shown, Tested as non-clonal AlivaMab Mouse hybridoma supernatant (human variable regions and human kappa, mouse Fc); also called ADS75110 non-clonal supernatant 05K11A) VH: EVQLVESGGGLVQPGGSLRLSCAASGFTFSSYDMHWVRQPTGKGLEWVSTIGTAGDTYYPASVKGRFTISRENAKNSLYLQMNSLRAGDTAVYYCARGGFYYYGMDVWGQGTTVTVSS VL: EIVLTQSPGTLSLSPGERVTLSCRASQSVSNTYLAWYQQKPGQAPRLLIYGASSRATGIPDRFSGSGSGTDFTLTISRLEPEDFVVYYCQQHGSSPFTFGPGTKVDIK
12000

What value of kon has been recorded for this entry: 75110_04P06A (antibody, V domains shown, Tested as non-clonal AlivaMab Mouse hybridoma supernatant (human variable regions and human kappa, mouse Fc); also called ADS75110 non-clonal supernatant 04P06A) VH: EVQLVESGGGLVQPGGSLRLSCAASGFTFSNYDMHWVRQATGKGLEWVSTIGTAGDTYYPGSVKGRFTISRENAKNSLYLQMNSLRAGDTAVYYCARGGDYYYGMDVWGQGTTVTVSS VL: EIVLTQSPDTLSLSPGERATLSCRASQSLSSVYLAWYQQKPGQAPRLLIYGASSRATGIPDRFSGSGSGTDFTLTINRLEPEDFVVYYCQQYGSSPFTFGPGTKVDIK
12000

What value of kon has been recorded for this entry: 75110_04F22A (antibody, V domains shown, Tested as non-clonal AlivaMab Mouse hybridoma supernatant (human variable regions and human kappa, mouse Fc); also called ADS75110 non-clonal supernatant 04F22A) VH: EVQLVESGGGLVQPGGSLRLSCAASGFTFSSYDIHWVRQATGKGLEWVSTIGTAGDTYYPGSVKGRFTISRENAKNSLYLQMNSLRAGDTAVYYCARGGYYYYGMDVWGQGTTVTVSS VL: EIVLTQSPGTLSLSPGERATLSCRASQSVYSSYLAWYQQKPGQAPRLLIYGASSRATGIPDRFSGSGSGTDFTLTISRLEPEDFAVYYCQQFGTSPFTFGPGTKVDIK
15000

What value of kon has been recorded for this entry: 75110_01J17A (antibody, V domains shown, Tested as non-clonal AlivaMab Mouse hybridoma supernatant (human variable regions and human kappa, mouse Fc); also called ADS75110 non-clonal supernatant 01J17A) VH: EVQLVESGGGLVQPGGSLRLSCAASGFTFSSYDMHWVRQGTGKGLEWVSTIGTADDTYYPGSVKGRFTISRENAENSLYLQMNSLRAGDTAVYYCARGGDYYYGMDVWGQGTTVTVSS VL: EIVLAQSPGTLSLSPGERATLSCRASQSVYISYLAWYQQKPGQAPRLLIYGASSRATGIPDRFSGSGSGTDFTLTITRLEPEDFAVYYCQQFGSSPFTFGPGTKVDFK
37000

What value of kon has been recorded for this entry: 75110_01H18A (antibody, V domains shown, Tested as non-clonal AlivaMab Mouse hybridoma supernatant (human variable regions and human kappa, mouse Fc); also called ADS75110 non-clonal supernatant 01H18A) VH: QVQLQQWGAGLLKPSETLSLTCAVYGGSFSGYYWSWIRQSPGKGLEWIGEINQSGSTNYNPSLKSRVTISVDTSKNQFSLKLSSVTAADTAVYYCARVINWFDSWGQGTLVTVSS VL: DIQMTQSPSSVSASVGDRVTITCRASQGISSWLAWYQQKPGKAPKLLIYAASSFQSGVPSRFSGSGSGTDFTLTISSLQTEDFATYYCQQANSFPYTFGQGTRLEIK
165000

Attribution: patent US20220112288A1
